procedureSummary: non-covalent RecA intein splicing inhibitors, dose response, biochemical, cell-free, fluorescence, secondary screen (AID 449750)
The source made the active and inactive calls. No rule for the calls is given here.
Classes used: true (1) (active), false (0) (inactive)

>>> assignedclass("Cc1cccc(NC2=C(NC(=O)c3ccccc3)C(=O)c3ccccc3C2=O)c1")
"true (1)"
>>> assignedclass("COc1ccccc1-c1cn[nH]c(=S)n1")
"false (0)"
>>> assignedclass("O=C(CCCN1C(=O)/C(=C/c2cccs2)SC1=S)Nc1ccc(O)cc1")
"false (0)"
>>> assignedclass("O=C(CN1C(=O)S/C(=C\\C=C\\c2ccccc2)C1=O)Nc1ccc(C(=O)O)cc1")
"true (1)"
>>> assignedclass("Cc1ccc(S(=O)(=O)/N=C2\\C=C(Nc3cccc(C(=O)O)c3)C(=O)c3ccccc32)cc1")
"true (1)"
>>> assignedclass("Cc1[nH]nc2c1C(c1cccs1)C(C#N)=C(N)O2 (stereo unspecified)")
"false (0)"
>>> assignedclass("Cc1nc2c(=O)n(C)c(=O)nc-2n(C)n1")
"true (1)"
>>> assignedclass("O=[N+]([O-])c1cc(-c2ccc(C(=S)N3CCOCC3)o2)ccc1Cl")
"true (1)"
>>> assignedclass("CCOC(=O)C1Nc2c(F)cc(C)cc2C2c3ccccc3CC12 (stereo unspecified)")
"true (1)"
>>> assignedclass("CSc1ccc(C(c2c(C)[nH][nH]c2=O)c2c(C)[nH][nH]c2=O)cc1")
"true (1)"
>>> assignedclass("CN1CCc2nc(SCC(=O)Nc3ccc(OC(F)(F)F)cc3)c(C#N)c(-c3cccs3)c2C1")
"true (1)"
>>> assignedclass("O=C(CCCN1C(=O)/C(=C/c2ccccc2)SC1=S)Nc1ccc(O)cc1")
"false (0)"
>>> assignedclass("CC(=O)c1c(Cl)nc2cccc3c2c1-c1ccccc1C3=O")
"false (0)"
>>> assignedclass("COc1cccc(NC(=S)/C(=C(\\[O-])c2ccc(OC(F)F)cc2)[n+]2ccccc2)c1")
"true (1)"
>>> assignedclass("CC(C)c1[nH]nc2c1C(c1cccs1)C(C#N)=C(N)O2 (stereo unspecified)")
"false (0)"
>>> assignedclass("C=CCN1C(=O)NC(c2ccc(OC)cc2)(C(F)(F)F)S/C1=C(\\C#N)c1nnc(N2CCOCC2)n1-c1ccccc1 (stereo unspecified)")
"true (1)"
>>> assignedclass("Cc1ccc(NC(=O)c2cnc(SCC(=O)NCC3CCCO3)n(C)c2=O)cc1 (stereo unspecified)")
"false (0)"
>>> assignedclass("O=[N+]([O-])c1ccc(S(=O)(=O)c2cccc(C(F)(F)F)c2)nc1")
"false (0)"
>>> assignedclass("N#CC1=C(N)Oc2n[nH]c(-c3cccs3)c2C1c1ccsc1 (stereo unspecified)")
"true (1)"
>>> assignedclass("OC(CNCCC1C=Nc2ccccc21)Cn1c2ccc(Cl)cc2c2cc(Cl)ccc21 (stereo unspecified)")
"true (1)"
>>> assignedclass("COCc1[nH]nc2c1C(c1ccsc1)C(C#N)=C(N)O2 (stereo unspecified)")
"true (1)"

###

procedureSummary: non-covalent RecA intein splicing inhibitors, dose response, biochemical, cell-free, fluorescence, secondary screen (AID 449750)
The source made the active and inactive calls. No rule for the calls is given here.
Classes used: yes (active), no (inactive)

>>> assignedclass("CCCCCCCCCCCCCCCC[N+](C)(C)CC")
"yes"
>>> assignedclass("CCOC(=O)N1C(=O)[C@](c2ccc(Cl)cc2)(C(C)C)N1C(=O)OCC")
"yes"
>>> assignedclass("O=C(CCCN1C(=O)/C(=C\\c2ccccc2)SC1=S)Nc1ccc(O)cc1C(=O)O")
"yes"
>>> assignedclass("CCOC(=O)c1nc(C)n(-c2ccc(Cl)cc2)n1")
"no"
>>> assignedclass("O=C1NCN(c2ccccc2)C12CCN(CCCC(c1ccc(F)cc1)c1ccc(F)cc1)CC2")
"yes"
>>> assignedclass("CCCSc1nnc(Sc2nnnn2-c2ccccc2)s1")
"yes"
>>> assignedclass("CC1CCCCC1NC(=O)NC(=O)CCl (stereo not drawn)")
"yes"
>>> assignedclass("Cc1ccc(C2C(C#N)=C(N)Oc3n[nH]c(-c4cccs4)c32)s1 (stereo not drawn)")
"yes"
>>> assignedclass("CC(=O)N(c1ccccc1)C(C)c1nc(C#N)c(C#N)nc1C (stereo not drawn)")
"no"
>>> assignedclass("O=Cc1ccc(Sc2nnc(-c3ccccc3)o2)c([N+](=O)[O-])c1")
"yes"
>>> assignedclass("COC(=O)C1=C(C)NC(=S)NC1c1ccc(OC(=O)c2ccco2)cc1 (stereo not drawn)")
"no"
>>> assignedclass("Cc1[nH]n(C(N)=S)c(=O)c1C(c1ccccc1)C(C#N)C#N (stereo not drawn)")
"no"
>>> assignedclass("Cc1sc(NC(=O)/C=C/C(=O)O)c(C(N)=O)c1-c1ccc(C(C)(C)C)cc1")
"yes"
>>> assignedclass("COc1ccc(-c2nnc(SC(=O)N3c4ccccc4Sc4ccccc43)o2)cc1")
"yes"
>>> assignedclass("NC(=O)c1c(-c2cccs2)csc1N")
"no"
>>> assignedclass("COc1ccc(/C=N/NC(=O)c2nn(-c3ccccc3)c(=O)c3c(N)scc23)cc1")
"no"
>>> assignedclass("C=CCc1cccc(C=Nc2c[nH]c(=O)[nH]c2=O)c1O")
"no"
>>> assignedclass("CCCCn1c(NC(=O)c2ccc(Br)o2)c(S(=O)(=O)c2ccccc2)c2nc3ccccc3nc21")
"no"
>>> assignedclass("Cc1ccc(N(C(=O)CCl)C(C(=O)NC2CCCCC2)c2cccnc2)cc1C (stereo not drawn)")
"yes"
>>> assignedclass("CCCCCCCCCCOC(=O)Cn1c(COc2cccc(C)c2)[n+](C)c2ccccc21")
"yes"
>>> assignedclass("O=C(Nc1ccc(N2CCOCC2)cc1)Nc1ccc2nsnc2c1")
"no"
>>> assignedclass("CN(C)C(=O)c1ccc2c(c1[N+](=O)[O-])C(=O)c1ccccc1C2=O")
"no"
>>> assignedclass("Cc1ccc(NC(=O)CCl)cc1S(=O)(=O)N1CCCCCC1")
"yes"

###

procedureSummary: non-covalent RecA intein splicing inhibitors, dose response, biochemical, cell-free, fluorescence, secondary screen (AID 449750)
Active and inactive are the calls of the source. How the calls were made is not given here.
Classes used: active, inactive

>>> assignedclass("O=S(=O)(c1ccccc1)c1ncc(C(F)(F)F)cc1Cl")
"inactive"
>>> assignedclass("O=C1CCCC(O)=C1C(C#Cc1ccccc1)C1=C(O)CCCC1=O")
"active"
>>> assignedclass("Cc1ccc(NC(=O)c2nc(S(=O)(=O)Cc3ccccc3C)ncc2Cl)cc1C")
"inactive"
>>> assignedclass("COc1cccc(Nc2c([N+](=O)[O-])cncc2[N+](=O)[O-])c1")
"inactive"
>>> assignedclass("CNC(=O)c1nnsc1S(=O)(=O)c1ccc(Cl)cc1")
"inactive"
>>> assignedclass("CCOc1cc(C(c2c(C)[nH][nH]c2=O)c2c(C)[nH][nH]c2=O)ccc1OS(=O)(=O)c1ccc(C)cc1")
"active"
>>> assignedclass("C=COC(=O)CSc1snc(SCC(=O)OC)c1C#N")
"inactive"
>>> assignedclass("CC1=NN(c2cccc(Cl)c2)C(=O)C12CC(C)=C(C)CS2 (stereo not given)")
"active"
>>> assignedclass("COC(=O)c1ccc(-c2ccc(C(c3c(C)[nH][nH]c3=O)c3c(C)[nH][nH]c3=O)o2)cc1")
"active"
>>> assignedclass("CC1=NN(c2ccc(C)cc2C)C(=O)C1C(c1ccccc1)C1C(=O)N(c2ccc(C)cc2C)N=C1C (stereo not given)")
"active"

###

procedureSummary: non-covalent RecA intein splicing inhibitors, dose response, biochemical, cell-free, fluorescence, secondary screen (AID 449750)
The source made the active and inactive calls. No rule for the calls is given here.
Classes used: active, inactive

>>> assignedclass("CN(C1=C(NC(=O)c2ccc(Cl)cc2)C(=O)c2ccccc2C1=O)c1ccccc1")
"active"
>>> assignedclass("Nc1c(N2CCCC2)cc(Cl)c2nonc12")
"active"
>>> assignedclass("Oc1ccc(N=Cc2ccc(O)c(O)c2)cc1")
"active"
>>> assignedclass("c1ccc(CCNCc2cccs2)cc1")
"inactive"
>>> assignedclass("COc1cc(C(C(=O)NC2CCCCC2)N(CCN2CCOCC2)C(=O)C2COc3ccccc3O2)cc(OC)c1OC (stereo not drawn)")
"inactive"
>>> assignedclass("Cc1nnc(N/N=C\\c2ccc(-c3ccccc3[N+](=O)[O-])o2)n1N")
"inactive"
>>> assignedclass("O=C1C(Cl)=C(NCCN2CCCCC2)C(=O)c2ccccc21")
"active"
>>> assignedclass("CCc1[nH]nc2c1C(c1ccc(C)o1)C(C#N)=C(N)O2 (stereo not drawn)")
"inactive"
>>> assignedclass("Cc1ccc(-n2nnnc2CCl)cc1")
"active"
>>> assignedclass("O=c1cc(-c2ccccc2)[nH][nH]1")
"active"
>>> assignedclass("COc1ccc(N(C(=O)CCl)C(C(=O)NCCc2ccccc2)c2cccs2)cc1Cl (stereo not drawn)")
"active"
>>> assignedclass("COc1ccc(C2CC(c3cccs3)=NN2C(=O)CCl)cc1OC (stereo not drawn)")
"active"
>>> assignedclass("CCOc1cc(NC2CS(=O)(=O)CC2O)c(OCC)cc1NC(=O)c1ccccc1 (stereo not drawn)")
"inactive"
>>> assignedclass("CCOc1ccc2c(c1)-c1c(ssc1=S)C(C)(C)N2")
"inactive"
>>> assignedclass("Cc1ccc(NC2=C(N3CCCCC3)C(=O)c3ccccc3C2=O)cc1")
"active"
>>> assignedclass("O=C(NC1=C(Nc2ccc(F)cc2)C(=O)c2ccccc2C1=O)c1ccc(Cl)cc1")
"active"
>>> assignedclass("CCCn1nc([N+](=O)[O-])c(C(C#N)c2nc3ccccc3s2)c(Cl)c1=O (stereo not drawn)")
"active"
>>> assignedclass("O=C(NCCc1ccccc1)C(c1cccs1)N(C(=O)CCl)c1ccc(Cl)cc1 (stereo not drawn)")
"active"
>>> assignedclass("COc1cc2c(cc1OC)-c1c(OC)c(OC)cc3c1[C@H](C2)N(C)CC3")
"active"
>>> assignedclass("CC1OC(Nc2cccc3ccccc23)C(O)C(O)C1O (stereo not drawn)")
"inactive"
>>> assignedclass("O=C1C(Cl)=C(N2CCOCC2)C(=O)N1c1ccc(Br)cc1")
"inactive"
>>> assignedclass("COc1cccc(-n2nc(C#N)c(Cl)cc2=O)c1")
"inactive"
>>> assignedclass("O=C(CSc1c2c(nc3cc(Cl)ccc13)CCCC2)NCc1ccco1")
"active"
